Catalogue of fold change of affinity readings, one per entry.
Molecular target: T1, Human CD3eg linker (human)
T1 construct: Single-chain construct; also called recombinant human CD3
T1 chain: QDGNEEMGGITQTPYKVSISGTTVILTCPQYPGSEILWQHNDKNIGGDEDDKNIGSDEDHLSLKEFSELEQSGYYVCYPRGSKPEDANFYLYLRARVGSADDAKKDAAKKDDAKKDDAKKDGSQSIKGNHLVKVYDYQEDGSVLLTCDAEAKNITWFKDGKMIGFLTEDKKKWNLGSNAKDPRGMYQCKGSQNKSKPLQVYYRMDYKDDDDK
Experiment: SPR; fold vs parent H183/L072
PARAMETER: fold change of affinity

>>> reading("H183/L072 VL Q24M (antibody, name in Kabat numbering, V domains shown) VH: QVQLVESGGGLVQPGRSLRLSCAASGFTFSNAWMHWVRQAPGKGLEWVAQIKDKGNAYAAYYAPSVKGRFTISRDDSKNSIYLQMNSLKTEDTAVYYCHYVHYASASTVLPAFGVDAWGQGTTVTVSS VL: DIVMTQSPLSLPVTPGEPASISCMASQELVHMNRNTYLHWYQQKPGQAPRLLIYKVSNRFPGVPDRFSGSGSGTDFTLKISRVEAEDVGVYYCAQGTSVPFTFGQGTKLEIK")
"1.1 fold"
>>> reading("H183/L072 VL E27aV (antibody, name in Kabat numbering, V domains shown) VH: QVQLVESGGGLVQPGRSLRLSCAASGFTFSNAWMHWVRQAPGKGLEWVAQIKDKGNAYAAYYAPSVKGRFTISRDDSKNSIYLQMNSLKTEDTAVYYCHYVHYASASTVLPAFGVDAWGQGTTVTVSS VL: DIVMTQSPLSLPVTPGEPASISCQASQVLVHMNRNTYLHWYQQKPGQAPRLLIYKVSNRFPGVPDRFSGSGSGTDFTLKISRVEAEDVGVYYCAQGTSVPFTFGQGTKLEIK")
"1 fold"
